- subject.of.test: recombinant human TFPI (tissue factor pathway inhibitor) (human, UniProt P10646 29-304)
- experiment.description: cell-based or functional assay
Label true when FXa assay OD, 20 nM Ab, 10 nM TFPI is strictly below 0.7; at or above that, label false.

{"binder": "clone 2 (antibody, V domains shown) VH: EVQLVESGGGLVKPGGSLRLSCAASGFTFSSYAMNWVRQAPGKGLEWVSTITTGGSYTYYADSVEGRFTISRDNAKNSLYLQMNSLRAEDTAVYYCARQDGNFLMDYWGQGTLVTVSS VL: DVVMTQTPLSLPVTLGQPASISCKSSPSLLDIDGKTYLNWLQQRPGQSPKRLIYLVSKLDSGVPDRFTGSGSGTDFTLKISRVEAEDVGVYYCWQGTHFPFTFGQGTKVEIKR", "label": "false"}
{"binder": "clone 12 (antibody, V domains shown, human IgG4/kappa IgG as purified; also called No. 12 antibody) VH: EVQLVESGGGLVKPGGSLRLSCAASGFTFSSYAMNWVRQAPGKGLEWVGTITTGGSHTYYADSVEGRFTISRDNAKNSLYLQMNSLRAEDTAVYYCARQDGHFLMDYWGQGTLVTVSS VL: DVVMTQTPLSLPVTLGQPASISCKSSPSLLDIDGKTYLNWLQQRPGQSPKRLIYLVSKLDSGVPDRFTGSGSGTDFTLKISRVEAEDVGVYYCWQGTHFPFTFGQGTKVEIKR", "label": "true"}
{"binder": "clone 8 (antibody, V domains shown) VH: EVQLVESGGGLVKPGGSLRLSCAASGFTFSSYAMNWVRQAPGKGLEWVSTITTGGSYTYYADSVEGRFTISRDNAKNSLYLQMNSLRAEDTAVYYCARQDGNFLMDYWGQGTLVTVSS VL: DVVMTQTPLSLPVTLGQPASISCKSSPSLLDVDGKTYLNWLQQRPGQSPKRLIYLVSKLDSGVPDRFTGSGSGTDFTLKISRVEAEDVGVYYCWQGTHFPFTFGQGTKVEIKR", "label": "true"}
{"binder": "clone 11 (antibody, V domains shown) VH: EVQLVESGGGLVKPGGSLRLSCAASGFTFSSYAMNWVRQAPGKGLEWVGTITTGGSYTYYADSVEGRFTISRDNAKNSLYLQMNSLRAEDTAVYYCARQDGNFLMDYWGQGTLVTVSS VL: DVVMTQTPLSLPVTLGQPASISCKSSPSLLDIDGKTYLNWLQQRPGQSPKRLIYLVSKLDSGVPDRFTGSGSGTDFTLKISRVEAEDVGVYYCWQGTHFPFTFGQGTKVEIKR", "label": "false"}

Cited source for all entries: patent US20180030151A1
